Target: bovine serum albumin (BSA) (Bos taurus)
Construct: BSA, molecular weight of 66 kDa, 583 residues; purchased Sigma Aldrich Chemicals (Taufkirchen, Germany)
Assay: High hydrostatic pressure fluorescence titration of ANS with BSA (1-2000 bar)
Format: binding
Conditions: Binding constant Kb2, 250 mM Mg(ClO4)2, 15 °C, 1 bar
Method: The extent of complex formation between ANS and BSA was followed by means of steady-state fluorescence spectroscopy using a K2 fluorometer from ISS, Inc. (Champaign, IL, USA). […] In the next step, we explored the impact of high hydrostatic pressure (HHP) on the binding of ANS to BSA in the presence of the three salts and in the temperature range between 5 and 25 °C. To this end, we performed the same titration experiments following the complex formation by means of HHP fluorescence spectroscopy. […]
outcome_measure: pKd
Quick note: pKd values are minus log10 of concentrations in mol/L.

Please state recorded pKd (tested on bovine serum albumin (BSA) (Bos taurus)) of `O=S(=O)(O)c1cccc2cccc(Nc3ccccc3)c12`
5.11

====

Target: bovine serum albumin (BSA) (Bos taurus)
Construct: BSA, molecular weight of 66 kDa, 583 residues; purchased Sigma Aldrich Chemicals (Taufkirchen, Germany)
Assay: High hydrostatic pressure fluorescence titration of ANS with BSA (1-2000 bar)
Type: binding
Details: Binding constant Kb1, 250 mM MgSO4, 25 °C, 1000 bar
Protocol: The extent of complex formation between ANS and BSA was followed by means of steady-state fluorescence spectroscopy using a K2 fluorometer from ISS, Inc. (Champaign, IL, USA). […] In the next step, we explored the impact of high hydrostatic pressure (HHP) on the binding of ANS to BSA in the presence of the three salts and in the temperature range between 5 and 25 °C. To this end, we performed the same titration experiments following the complex formation by means of HHP fluorescence spectroscopy. […]
outcome_measure: Kd (nM)
// units = nM; emit number, no label

Sample `O=S(=O)(O)c1cccc2cccc(Nc3ccccc3)c12` — what was its Kd?
370

====

biological target: bovine serum albumin (BSA) (Bos taurus, UniProt P02769); construct: BSA, molecular weight of 66 kDa, 583 residues; purchased Sigma Aldrich Chemicals (Taufkirchen, Germany); assay: High hydrostatic pressure fluorescence titration of ANS with BSA (1-2000 bar); type: binding; conditions: Binding constant Kb2, 250 mM Mg(ClO4)2, 15 °C, 1500 bar
Sequence (P02769 25-607): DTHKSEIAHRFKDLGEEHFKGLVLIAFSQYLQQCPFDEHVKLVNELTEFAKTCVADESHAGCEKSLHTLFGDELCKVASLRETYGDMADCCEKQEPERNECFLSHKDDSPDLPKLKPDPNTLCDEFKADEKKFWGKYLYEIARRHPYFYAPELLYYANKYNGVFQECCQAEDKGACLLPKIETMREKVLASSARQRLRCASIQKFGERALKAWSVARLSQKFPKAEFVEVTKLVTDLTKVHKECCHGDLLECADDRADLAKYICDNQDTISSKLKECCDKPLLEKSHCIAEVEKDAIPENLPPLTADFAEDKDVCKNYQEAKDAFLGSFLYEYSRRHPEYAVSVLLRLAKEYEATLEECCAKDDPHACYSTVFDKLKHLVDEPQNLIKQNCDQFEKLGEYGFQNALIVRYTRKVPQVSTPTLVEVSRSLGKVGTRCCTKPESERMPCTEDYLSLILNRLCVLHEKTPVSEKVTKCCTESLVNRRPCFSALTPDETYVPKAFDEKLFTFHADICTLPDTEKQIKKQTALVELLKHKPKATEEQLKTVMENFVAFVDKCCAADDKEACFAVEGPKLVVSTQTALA
outcome_measure: Kd (µM)
// units = µM; emit number, no label

Sample O=S(=O)(O)c1cccc2cccc(Nc3ccccc3)c12 [ANS, 8-anilinonaphthalene-1-sulfonic acid] — what was its Kd?
4.76

====

target: bovine serum albumin (BSA) (Bos taurus); construct: BSA, molecular weight of 66 kDa, 583 residues; purchased Sigma Aldrich Chemicals (Taufkirchen, Germany); experiment: High hydrostatic pressure fluorescence titration of ANS with BSA (1-2000 bar); assay type: binding; conditions: Binding constant Kb1, 250 mM MgSO4, 5 °C, 1500 bar
outcome_measure: pKd
Quick note: pKd values are minus log10 of concentrations in mol/L.

Please state recorded pKd (tested on bovine serum albumin (BSA) (Bos taurus)) of O=S(=O)(O)c1cccc2cccc(Nc3ccccc3)c12 [ANS, 8-anilinonaphthalene-1-sulfonic acid]
5.74

====

biological target: bovine serum albumin (BSA) (Bos taurus); construct: BSA, molecular weight of 66 kDa, 583 residues; purchased Sigma Aldrich Chemicals (Taufkirchen, Germany); experiment: High hydrostatic pressure fluorescence titration of ANS with BSA (1-2000 bar); assay type: binding; details: Binding constant Kb1, 250 mM MgSO4, 25 °C, 1 bar
outcome_measure: Kd (nM)
// units = nM; emit number, no label

Please state recorded Kd (tested on bovine serum albumin (BSA) (Bos taurus)) of O=S(=O)(O)c1cccc2cccc(Nc3ccccc3)c12 [ANS, 8-anilinonaphthalene-1-sulfonic acid]
345

Ref: paper PMC8301423
